Recorded measurements of SPOT signal as a fraction of Bim BH3's signal on the same receptor and array, one per entry
MEASUREMENT TARGET: T1, Mcl-1, Q07820
T1 chain: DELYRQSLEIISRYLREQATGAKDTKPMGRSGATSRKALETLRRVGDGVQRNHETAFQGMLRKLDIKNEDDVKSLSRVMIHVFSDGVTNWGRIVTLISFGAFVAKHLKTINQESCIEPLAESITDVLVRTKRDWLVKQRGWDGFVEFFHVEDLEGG
METHOD: peptide SPOT array, c-Myc-tagged receptor at 1 uM or 100 nM, anti-c-Myc-Cy3
Note: the reply should be a number with no unit written.

Example binders with recorded SPOT signal as a fraction of Bim BH3's signal on the same receptor and array:
BINDER: WTLFVYTKGNDRMIGDDLVNSYHLLL [RBL1]
OBS VALUE: 0.07
//
BINDER: VLELHPGAQRLHIGLDEVYYLGEGEA [HEXDC]
OBS VALUE: 0.05
//
BINDER: KGTAVAICRRLGIFGDTEDVAGKAYT [ATP2A3]
OBS VALUE: 0.19

Field request: SPOT signal as a fraction of Bim BH3's signal on the same receptor and array | item: LCQLSCVSKLDRDVCGSLLQSRGMVI [FBXO30] 0.08

Then what about the binder SDIRDDISEQVRHVGRTVRGHPRKKL [TMEM184C] ? 0.32

Then what about the binder RHFVIRRGQVDREIAEEYGGVMVSFP [HDLBP] ? 0.03

Then what about the binder SSTMGQVGRQLAIILDDINRRYDSEF [BAK1] ? 0.01
